- Tested on: L1210
- experimental details: Cytotoxicity against mouse L1210 cells after 48 hrs by MTA assay
- Assay type: functional, cell-based
- experimental context: L1210, 48 h
endpoint name: pIC50
// field semantics: pIC50 = negative decimal log of concentration (mol/L)

COc1cc2c(c3c1c(=O)c1c4ccccc4ccc1n3C)[C@H]1OC(=O)O[C@H]1C(C)(C)O2 (racemic) ... 7.23

Q) Supply recorded pIC50 for COc1cc2c(c3c1c(=O)c1c4ccccc4ccc1n3C)[C@@H](OC(C)=O)[C@@H](OC(C)=O)C(C)(C)O2 (racemic) here.
A) 6.14

Q) Supply recorded pIC50 for COc1cc2c(c3c1c(=O)c1cc4cc(Br)ccc4cc1n3C)[C@@H](O)[C@@H](O)C(C)(C)O2 (racemic) here.
A) 6.65

Q) Supply recorded pIC50 for C#CC(C)(C)Oc1cc(O)c2c(=O)c3c4ccc(Br)cc4ccc3n3c2c1C(C)(C)C3=C here.
A) 4.29

Q) Supply recorded pIC50 for COc1cc2c(c3c1c(=O)c1cc4cc(Br)ccc4cc1n3C)[C@H]1OC(=O)O[C@H]1C(C)(C)O2 (racemic) here.
A) 7.47

Q) Supply recorded pIC50 for COc1cc2c(c3c1c(=O)c1c4ccc(Br)cc4ccc1n3C)[C@@H](OC(C)=O)[C@@H](OC(C)=O)C(C)(C)O2 (racemic) here.
A) 6.40

Q) Supply recorded pIC50 for C=C1n2c3ccc4cc(Br)ccc4c3c(=O)c3c(O)cc(O)c(c32)C1(C)C here.
A) 5.14

* * *

- experimental details: Cytotoxicity against human KB-3-1 cells after 96 hrs by MTA assay
- Assay type: functional, cell-based
- experimental context: KB 3-1, 96 h
endpoint name: pIC50
// field semantics: pIC50 = negative decimal log of concentration (mol/L)

COc1cc2c(c3c1c(=O)c1cc4cc(Br)ccc4cc1n3C)[C@@H](O)[C@@H](O)C(C)(C)O2 (racemic) ... 4.44
COc1cc2c(c3c1c(=O)c1cc4ccccc4cc1n3C)[C@@H](OC(C)=O)[C@@H](OC(C)=O)C(C)(C)O2 (racemic) ... 7.02
C#CC(C)(C)Oc1cc(O)c2c(=O)c3c4ccc(Br)cc4ccc3n3c2c1C(C)(C)C3=C ... 4.43
COc1cc2c(c3c1c(=O)c1c4ccccc4ccc1n3C)[C@H]1OC(=O)O[C@H]1C(C)(C)O2 (racemic) ... 7.82
COc1cc2c(c3c1c(=O)c1c4ccc(Br)cc4ccc1n3C)[C@@H](OC(C)=O)[C@@H](OC(C)=O)C(C)(C)O2 (racemic) ... 7.40
COc1cc2c(c3c1c(=O)c1cc4cc(Br)ccc4cc1n3C)[C@H]1OC(=O)O[C@H]1C(C)(C)O2 (racemic) ... 7.96
COc1cc2c(c3c1c(=O)c1c4ccc(Br)cc4ccc1n3C)[C@@H](O)[C@@H](O)C(C)(C)O2 (racemic) ... 5.26
COc1cc2c(c3c1c(=O)c1c4ccccc4ccc1n3C)C=CC(C)(C)O2 [BENZO[A]ACRONYCINE] ... 5.07
C=C1n2c3ccc4cc(Br)ccc4c3c(=O)c3c(O)cc(O)c(c32)C1(C)C ... 5.60
COc1cc2c(c3c1c(=O)c1c4ccccc4ccc1n3C)[C@@H](OC(C)=O)[C@@H](OC(C)=O)C(C)(C)O2 (racemic) ... 6.85

Please turn your attention to the following entry.
Q) Supply recorded pIC50 for COc1cc2c(c3c1c(=O)c1c4ccc(Br)cc4ccc1n3C)C=CC(C)(C)O2 here.
A) 5.89
